Exercise: state measured Melt Energy for each of the compounds provided.
# MEASUREMENT_DESCRIPTION: Differential scanning calorimetry (DSC) of sorbitol grades
# Format: physicochemical
# DETAILS: sorbitol grades used as binder
Value expressed in J/g; do not type the unit.

What value of Melt Energy has been reported for the following compound? OC[C@@H](O)[C@@H](O)[C@H](O)[C@@H](O)CO [Example P550SD, sorbitol] 165.1

What value of Melt Energy has been reported for the following compound? OC[C@@H](O)[C@@H](O)[C@H](O)[C@@H](O)CO [Example P650C, sorbitol] 174.9

What value of Melt Energy has been reported for the following compound? OC[C@@H](O)[C@@H](O)[C@H](O)[C@@H](O)CO [Example P300C, sorbitol] 180.3

What value of Melt Energy has been reported for the following compound? OC[C@@H](O)[C@@H](O)[C@H](O)[C@@H](O)CO [Xtab300S, sorbitol] 126.5

What value of Melt Energy has been reported for the following compound? OC[C@@H](O)[C@@H](O)[C@H](O)[C@@H](O)CO [Example P100C, sorbitol] 181.9

What value of Melt Energy has been reported for the following compound? OC[C@@H](O)[C@@H](O)[C@H](O)[C@@H](O)CO [Xtab200S, sorbitol] 161.7
